Values compiled from patent US20250145711A1.

# SYSTEM TESTED: T1, CD3 on primary human pan T cells (human, UniProt P07766 23-207)
# T1 construct: on cells it stands in the TCR/CD3 complex; also called Pan T-cells (CD3-positive); endogenous CD3
# T1 sequence (P07766 23-207 limits assumed): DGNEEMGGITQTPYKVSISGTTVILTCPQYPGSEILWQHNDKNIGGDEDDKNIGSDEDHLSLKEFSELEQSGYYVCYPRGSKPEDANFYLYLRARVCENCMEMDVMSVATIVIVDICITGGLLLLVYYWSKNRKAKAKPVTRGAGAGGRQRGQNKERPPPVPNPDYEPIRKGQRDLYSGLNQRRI
# PROCEDURE DETAILS: flow cytometry, pan T-cells
OBSERVED PROPERTY: % Binding retained on T-cells, 65° C. (fraction)
Field format: number, assumed fraction, no unit text.

Some solved entries appear below for comparison.
>  <BINDER>
CD3B2080 (scFv) scFv: QVQLVQSGAEVKKPGSSVKVSCKASGYTFTRSTMHWVRQAPGQGLEWIGYINPSSAYTNYAQKFQGRVTLTADKSTSTAYMELSSLRSEDTAVYYCASPQVHYDYNGFPYWGQGTLVTVSSGGSEGKSSGSGSESKSTGGSEIVLTQSPATLSASPGERVTLSCSASSSVSYMNWYQQKPGQSPRRWIYDSSKLASGVPARFSGSGSGRDYTLTISSLEPEDFAVYYCQQWSRNPPTFGGGTKVEIK

>  <% Binding retained on T-cells, 65° C. [fraction]>
0.0573

$$$$
>  <BINDER>
CD3B2033 (scFv) scFv: QVQLVQSGAEVKKPGSSVKVSCKASGYTFTRSTMHWVKQAPGQGLEWMGYINPSSAYTNYNQKFQGRVTLTADKSTSTAYMELSSLRSEDTAVYYCASPQVHYDYNGFPYWGQGTLVTVSSGGSEGKSSGSGSESKSTGGSEIVLTQSPATLSASPGERVTLSCSASSSVSYMNWYQQKPGTAPRRLIYDSSKLASGVPARFSGSGSGRDYTLTISSLEPEDFAVYYCQQWSRNPPTFGGGTKVEIK

>  <% Binding retained on T-cells, 65° C. [fraction]>
0.295

$$$$

// moving on: another record for % Binding retained on T-cells, 65° C.
Which value of % Binding retained on T-cells, 65° C. has been reported for CD3B2078 (scFv) scFv: QVQLVQSGAEVKKPGSSVKVSCKASGYTFTRSTMHWVRQAPGQGLEWIGYINPSSAYTNYAQKFQGRVTLTADKSTSTAYMELSSLRSEDTAVYYCASPQVHYDYNGFPYWGQGTLVTVSSGGSEGKSSGSGSESKSTGGSEIVLTQSPATLSASPGERVTLSCSASSSVSYMNWYQQKPGTSPRRLIYDSSKLASGVPARFSGSGSGRDYTLTISSLEPEDFAVYYCQQWSRNPPTFGGGTKVEIK in the records?
0.0574
